studySystem: Cannabinoid receptor 2 (Homo sapiens, UniProt P34972)
Sequence (P34972 whole entry): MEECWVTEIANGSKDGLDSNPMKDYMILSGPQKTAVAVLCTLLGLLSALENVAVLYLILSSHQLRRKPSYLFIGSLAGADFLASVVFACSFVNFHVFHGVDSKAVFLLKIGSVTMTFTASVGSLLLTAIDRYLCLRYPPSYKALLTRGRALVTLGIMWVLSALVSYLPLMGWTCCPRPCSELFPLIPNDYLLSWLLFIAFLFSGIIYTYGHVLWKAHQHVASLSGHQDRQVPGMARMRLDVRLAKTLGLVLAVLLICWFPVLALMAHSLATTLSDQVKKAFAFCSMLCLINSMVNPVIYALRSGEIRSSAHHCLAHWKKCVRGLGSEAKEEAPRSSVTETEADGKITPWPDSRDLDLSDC
methodDescription: Displacement of [3H]CP55940 from human CB2 receptor expressed in HEK cells incubated for 3 hrs by competitive assay
reportedProperty: IC50 (µM)

chemicalString	reportedProperty	obsValue
CCN(CC)C(=O)c1ccc2c(c1)nc(Cc1ccc(OC(=O)N3CCC3)cc1)n2CCC(C)C	IC50	5.01

---

studySystem: UniProtKB P22303
Sequence (P22303 whole entry): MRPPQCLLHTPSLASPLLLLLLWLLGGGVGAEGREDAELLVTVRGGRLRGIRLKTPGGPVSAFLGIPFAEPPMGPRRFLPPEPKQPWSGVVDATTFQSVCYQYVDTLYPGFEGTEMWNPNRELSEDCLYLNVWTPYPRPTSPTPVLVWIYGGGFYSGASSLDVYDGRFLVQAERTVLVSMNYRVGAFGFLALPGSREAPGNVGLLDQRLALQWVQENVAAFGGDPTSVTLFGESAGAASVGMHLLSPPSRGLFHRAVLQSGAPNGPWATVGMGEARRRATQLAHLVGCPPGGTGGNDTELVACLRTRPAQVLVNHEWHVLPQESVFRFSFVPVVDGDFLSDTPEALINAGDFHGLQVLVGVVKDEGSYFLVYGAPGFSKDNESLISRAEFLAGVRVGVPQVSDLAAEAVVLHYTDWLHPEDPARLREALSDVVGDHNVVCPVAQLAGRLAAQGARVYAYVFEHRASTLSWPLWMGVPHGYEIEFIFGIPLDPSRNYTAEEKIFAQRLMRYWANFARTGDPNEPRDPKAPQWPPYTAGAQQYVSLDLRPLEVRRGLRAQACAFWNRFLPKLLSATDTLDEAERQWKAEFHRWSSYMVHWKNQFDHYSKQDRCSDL
methodDescription: Inhibition of human AChE using acetylthiocholine iodide as substrate at 10 uM preincubated for 20 mins followed by substrate addition and measured every 30 sec for 3 mins by DTNB-based UV analysis relative to control
cond: time 23.0 min

compound	inhibition
CCCCCCCNC(=O)Oc1ccc2c(c1)CN1CCc3ccccc3C1N2C (centres undefined)	39%
CCCCCCCNC(=O)Oc1ccc(Cc2nc3cc(C(=O)NCCC(C)C)ccc3n2CCC(C)C)cc1	55%
CCCCCCCNC(=O)Oc1ccc(Cc2nc3cc(C(=O)Nc4ccccc4)ccc3n2CCC(C)C)cc1	49%
CCN(CC)C(=O)c1ccc2c(c1)nc(Cc1ccc(OC(=O)N3CCCC3)cc1)n2CCC(C)C	16%

---

pIC50: −log10 of the molar value.
Notes on pIC50 obtained with UniProtKB P06276.
Sequence (P06276 whole entry): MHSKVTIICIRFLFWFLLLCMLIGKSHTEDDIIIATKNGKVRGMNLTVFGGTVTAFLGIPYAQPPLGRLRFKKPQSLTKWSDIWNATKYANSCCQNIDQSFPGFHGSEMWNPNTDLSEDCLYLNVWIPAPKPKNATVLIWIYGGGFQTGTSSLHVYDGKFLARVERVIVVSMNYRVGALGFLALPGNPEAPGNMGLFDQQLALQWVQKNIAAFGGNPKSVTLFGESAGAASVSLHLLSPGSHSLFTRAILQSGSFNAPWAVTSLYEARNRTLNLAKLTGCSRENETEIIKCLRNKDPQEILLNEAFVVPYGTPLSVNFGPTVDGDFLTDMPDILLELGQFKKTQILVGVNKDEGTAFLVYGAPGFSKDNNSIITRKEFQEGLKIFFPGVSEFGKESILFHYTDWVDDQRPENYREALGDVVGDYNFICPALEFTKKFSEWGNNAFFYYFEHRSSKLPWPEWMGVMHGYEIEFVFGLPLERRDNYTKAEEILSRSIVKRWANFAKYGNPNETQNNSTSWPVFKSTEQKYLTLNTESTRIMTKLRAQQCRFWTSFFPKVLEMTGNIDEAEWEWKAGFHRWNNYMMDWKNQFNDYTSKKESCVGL

chemicalString	pIC50
CCCCCCCNC(=O)Oc1ccc(Cc2nc3cc(C(=O)Nc4ccccc4)ccc3n2CCC(C)C)cc1	7.81
CCCCCCCNC(=O)Oc1ccc(Cc2nc3cc(C(=O)N(CC)CC)ccc3n2CCC(C)C)cc1	7.88
CCCCCCCNC(=O)Oc1ccc(Cc2nc3cc(C(=O)NCCC(C)C)ccc3n2CCC(C)C)cc1	8.43
CCCCCCCNC(=O)Oc1ccc(Cc2nc3cc(C(=O)N(CC)CC)ccc3n2CCCCN2CCCCC2)cc1	5.62
CCN(CC)C(=O)c1ccc2c(c1)nc(Cc1ccc(OC(=O)N3CCCC3)cc1)n2CCC(C)C	6.86
CCN(CC)C(=O)c1ccc2c(c1)nc(Cc1ccc(OC(=O)NCCCCCCN3CCc4ccccc4C3)cc1)n2CCC(C)C	7.12
CCCCCCCNC(=O)Oc1ccc(Cc2nc3cc(C(=O)N4CCCCC4)ccc3n2CCC(C)C)cc1	7.51

---

methodDescription: physchem
cond: PBS buffer
Description: Solubility of the compound in PBS buffer incubated overnight at room temperature by HPLC based continuous shake-flask method
In this section, each of the molecules is paired with its reported solubility thermodynamic.
reportedProperty: solubility thermodynamic (µg/mL)

molecule	rel	obsValue
CCN(CC)C(=O)c1ccc2c(c1)nc(Cc1ccc(OC(=O)N3CCCC3)cc1)n2CCC(C)C	=	3.9
CCCCCCCNC(=O)Oc1ccc(Cc2nc3cc(C(=O)N(CC)CC)ccc3n2CCCCN2CCCCC2)cc1	=	67
CCCCCCCNC(=O)Oc1ccc2c(c1)CN1CCc3ccccc3C1N2C (configuration not stated)	<	1
CCN(CC)C(=O)c1ccc2c(c1)nc(Cc1ccc(OC(=O)N3CCC3)cc1)n2CCC(C)C	=	7.2
CCCCCCCNC(=O)Oc1ccc(Cc2nc3cc(C(=O)NCCC(C)C)ccc3n2CCC(C)C)cc1	<	1
CCCCCCCNC(=O)Oc1ccc(Cc2nc3cc(C(=O)N(CC)CC)ccc3n2CCC(C)C)cc1	<	1
CCCCCCCNC(=O)Oc1ccc(Cc2nc3cc(C(=O)N4CCCCC4)ccc3n2CCC(C)C)cc1	<	1
